assay: Tissue distribution and gamma camera imaging in nude mice bearing LS174T tumors; settings: athymic NCr nude, mouse, blood, iv, total radioactivity, Biodistribution, 24 h postinjection, nude mice bearing LS174T tumors, mean ± SD, n = 5
Square brackets hold non-standard residues; d marks the D form. Peptide text beside a SMILES is read from it. GABA = NCCCC(=O)O
measured.attribute: tissue uptake at 24 h (%ID/g)
Give just the number in %ID/g; leave the unit off.

Noted for C[C@@H](NC(=O)CN)C(=O)NCC(=O)NCC(=O)NCCCC(=O)O [^99mTc-G(D)AGG-Aba, metal not drawn] (H-G[dA]GG[GABA]-OH; N-terminus and C-terminus assumed) : its tissue uptake at 24 h reads 0.03
